Numbers sourced from patent US20260242478A1.

- Tgt: T1, Anti-PSMA Fab (SEQ ID NOs: 19, 20)
- T1 construct: In the phage ELISA the Fab was biotinylated and captured on neutravidin coated plates; also called 006 PSMA Fab
- Assay details: phage ELISA; biotinylated PSMA Fab on neutravidin plate, clonal phage supernatant, anti-M13 HRP detection;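 note: wells preincubated with PSMA antigen in blocking buffer or with blocking buffer only before clonal phage were added for a short incubation, then bound phage detected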
Where no end group is shown, it is not given here.
Measured attribute: Phage binding ELISA, Anti-PSMA Fab signal

Binder: SEMLCKPSWMCLGF (cysteine pairing not given here; also: displayed on phage as pIII fusion, pIII and linker sequences not given here, Clone of the Peptide-180 library) [Phage-1851]
Experimental result: 2.17
//
Binder: AIPWCIPAWMCQVF (cysteine pairing not given here; also: displayed on phage as pIII fusion, pIII and linker sequences not given here, Clone of the Peptide-180 library) [Phage-1848]
Experimental result: 2.18
//
Binder: SMHWCTPKWMCEGL (cysteine pairing not given here; also: displayed on phage as pIII fusion, pIII and linker sequences not given here, Clone of the Peptide-180 library) [Phage-1847]
Experimental result: 2.2
//
Binder: MEKWCIPEWMCLHT (cysteine pairing not given here; also: displayed on phage as pIII fusion, pIII and linker sequences not given here, Clone of the Peptide-180 library) [Phage-1853]
Experimental result: 2.17
//
Binder: PSMRCIPEWMCAML (cysteine pairing not given here; also: displayed on phage as pIII fusion, pIII and linker sequences not given here, Clone of the Peptide-180 library) [Phage-1846]
Experimental result: 2.2
